biological target: UniProt P51452; experiment: Biochemical DiFMUP fluorescent assay for VHR phosphatase inhibition, SAR follow up (AID 2074); conditions: recombinant VHR phosphatase, DiFMUP fluorescence
Sequence (P51452 whole entry, looked up): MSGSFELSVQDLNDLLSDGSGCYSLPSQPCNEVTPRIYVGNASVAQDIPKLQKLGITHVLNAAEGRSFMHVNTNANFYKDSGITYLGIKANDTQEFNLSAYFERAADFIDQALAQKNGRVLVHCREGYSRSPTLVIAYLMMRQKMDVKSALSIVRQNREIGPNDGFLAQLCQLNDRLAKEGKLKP
measured endpoint: IC50

These solved cases illustrate the format of a correct answer.
O=C1/C(=C/c2cn(-c3ccccc3)nc2-c2ccc(OCc3ccc(Cl)cc3)cc2)SC(=S)N1CCS(=O)(=O)O ... 0.018 µM
O=C1/C(=C/c2cn(-c3ccccc3)nc2-c2ccc(OCc3ccccc3Cl)cc2)SC(=S)N1CCS(=O)(=O)O ... 0.071 µM

In the following, a different molecule is considered.
Any idea what IC50 was measured for O=C1/C(=C/c2cn(-c3ccccc3)nc2-c2ccc(S(=O)(=O)N3CCOCC3)cc2)SC(=S)N1CCS(=O)(=O)O ?
2.4 µM

* * *

target: Dual specificity protein phosphatase 3 (Homo sapiens); assay: Biochemical DiFMUP fluorescent assay for VHR phosphatase inhibition, SAR follow up (AID 2074); details: recombinant VHR phosphatase, DiFMUP fluorescence
measured endpoint: IC50

These solved cases illustrate the format of a correct answer.
O=C1/C(=C/c2cn(-c3ccccc3)nc2-c2ccc(OCc3ccccc3)cc2)SC(=S)N1CCS(=O)(=O)O ... 78 nM
O=C1/C(=C/c2cn(-c3ccccc3)nc2-c2ccc(Cl)cc2)SC(=S)N1CCS(=O)(=O)O ... 1800 nM
Cc1ccc(-c2nn(-c3ccccc3)cc2/C=C2\SC(=S)N(CCS(=O)(=O)O)C2=O)cc1 ... 3100 nM

In the following, a different compound is considered.
Any idea what IC50 was measured for COc1ccc(-c2nn(-c3ccccc3)cc2/C=C2\SC(=S)N(CCS(=O)(=O)O)C2=O)cc1 ?
1800 nM
